- Experiment Summary: Solubility Test, aqueous solution with pH 6.9
- Type: physicochemical
- Run Conditions: aqueous buffer, thermodynamic from solid, 8.87 mg almost dissolved when 35 mL was added
- Description: To the crystals (8.87 mg) obtained in Example 6 was gradually added dropwise an aqueous solution with pH 6.9.
Assay Readout: solubility (µg/mL)
The response must be a number in µg/mL with no trailing unit.

Query: # lookup: solubility of Cc1c(OCC(F)(F)F)ccnc1C[S@@+]([O-])c1nc2ccccc2[nH]1 [Example 6]
Result: 250

----------
- Experiment Summary: Solubility Test, aqueous solution with pH 9.2
- Format: physicochemical
- Run Conditions: aqueous buffer, thermodynamic from solid, 10.75 mg almost dissolved when 13.5 mL was added
- Description: To the crystals (10.75 mg) obtained in Example 6 was gradually added dropwise an aqueous solution with pH 9.2. The crystals were almost dissolved at the time point when 13.5 mL was added (solubility: 0.80 mg/mL).
Assay Readout: solubility (µg/mL)
The response must be a number in µg/mL with no trailing unit.

Query: # lookup: solubility of `Cc1c(OCC(F)(F)F)ccnc1C[S@@+]([O-])c1nc2ccccc2[nH]1`
Result: 800
